Task for the reader: assign each of the following compounds its reported TD50.
Test system: neurotoxicity (rotorod ataxia) in mice
Assay: Neurotoxicity, rotorod ataxia test, mice, i.p.
Parameters: species or system mouse (male Carworth Farms #1)
Conditions: mouse, in vivo, ip
Field format: number, assumed mg/kg, no unit text.

Per the records, this compound ( CC(Nc1ccc(Cl)cc1)c1ccncc1 (single isomer, unassigned; (-)) ) has TD50 equal to 219.4

Per the records, this compound ( CC(Nc1ccc(Cl)c(Cl)c1)c1ccncc1 (single isomer, unassigned; (-)) ) has TD50 equal to 279.2

Per the records, this compound ( CCC(Nc1ccc(Cl)c(Cl)c1)c1ccncc1 (single isomer, unassigned; (-)) ) has TD50 equal to 275.2

Per the records, this compound ( CC(Nc1ccc(Br)cc1)c1ccncc1 (single isomer, unassigned; (-)) [Compound 12] ) has TD50 equal to 287.6

Per the records, this compound ( CC(Nc1ccc(Br)cc1)c1ccncc1 (single isomer, unassigned; (+)) [Compound 11] ) has TD50 equal to 133.9

Per the records, this compound ( CCC(Nc1ccc(Cl)cc1)c1ccncc1 (single isomer, unassigned; (-)) ) has TD50 equal to 269.4
